Source: paper PMC11079024

Tested on: L1 wild-type C. elegans
Test: microbe, parasite or virus in culture
Conditions: Caenorhabditis elegans, read-out: C. elegans KCN Survival Assay LC50, estimated from fitted dose-response curves; mean of at least two biological replicates
Readout type: LC50 (µM)
Form entry: value (µM) — number only.

Sample answers from the record:
Requested read-out: LC50. Entry: Nc1nc2ccccc2n1CCCOc1ccccc1 [Compound 7915320] 23.7

What do you have for c1ccc(CCCCCCCCCCc2nc3ccccc3[nH]2)cc1 [STL442376] ? 5.61

Next:
Any idea what its LC50 is? The compound is CCc1cc(OCCn2cnc3ccccc32)ccc1Cl [Compound 7925288] 19.1

Then Nc1nc2ccccc2n1CCOc1ccc(Br)cc1 [Compound 5842535] ? 26.7

# iterate: COc1ccccc1/C=C/c1nc2ccccc2[nH]1 [Compound 7148894] 9.02

Note, next up: CCc1ccc(OC(C)c2nc3ccccc3[nH]2)cc1 (stereo not shown) [STK914290] 22.4

Please do the same for Cc1nc2ccccc2n1Cc1ccc(Br)cc1 [Compound 5567167] as well. 1.34

###

Target: C. elegans (N2) complex I (NADH:ubiquinone oxidoreductase) (Caenorhabditis elegans, UniProt P24887+Q93873+Q94360)
Sequence (Q94360 17-199): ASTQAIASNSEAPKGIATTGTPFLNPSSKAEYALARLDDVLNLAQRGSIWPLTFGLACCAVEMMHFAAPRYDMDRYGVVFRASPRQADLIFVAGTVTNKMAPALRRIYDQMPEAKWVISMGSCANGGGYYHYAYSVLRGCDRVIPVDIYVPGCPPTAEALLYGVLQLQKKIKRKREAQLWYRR
Sequence (P24887 whole entry): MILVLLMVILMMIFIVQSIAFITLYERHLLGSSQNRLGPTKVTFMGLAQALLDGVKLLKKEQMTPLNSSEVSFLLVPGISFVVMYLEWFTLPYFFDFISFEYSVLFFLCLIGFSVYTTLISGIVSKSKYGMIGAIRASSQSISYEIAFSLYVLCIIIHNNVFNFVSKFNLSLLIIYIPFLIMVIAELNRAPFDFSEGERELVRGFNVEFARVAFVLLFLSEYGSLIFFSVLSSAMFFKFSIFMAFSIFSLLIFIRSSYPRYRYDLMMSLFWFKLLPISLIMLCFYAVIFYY
Sequence (Q93873 31-482): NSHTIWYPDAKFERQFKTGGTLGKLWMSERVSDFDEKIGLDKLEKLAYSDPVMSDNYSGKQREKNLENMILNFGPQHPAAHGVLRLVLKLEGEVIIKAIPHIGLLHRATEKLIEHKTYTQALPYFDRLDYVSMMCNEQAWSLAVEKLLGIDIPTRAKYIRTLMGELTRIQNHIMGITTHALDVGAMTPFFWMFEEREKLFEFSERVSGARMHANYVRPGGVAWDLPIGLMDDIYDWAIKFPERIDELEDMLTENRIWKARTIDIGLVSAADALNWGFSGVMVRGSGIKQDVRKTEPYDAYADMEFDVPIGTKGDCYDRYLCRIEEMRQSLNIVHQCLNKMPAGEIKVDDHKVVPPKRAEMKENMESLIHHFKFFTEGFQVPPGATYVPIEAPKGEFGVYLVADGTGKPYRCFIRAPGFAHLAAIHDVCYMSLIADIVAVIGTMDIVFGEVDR
Assay: biochemical
Assay type: biochemical
Conditions: dose 0.0025 µM; wild-type C. elegans; mean of replicates; read-out: in vitro complex I activity relative to solvent control, Mean
Readout type: remaining activity at 0.0025 µM (%)
Answer in %, number only, no unit symbol.

Fill blank: measured remaining activity at 0.0025 µM of the molecule `Cc1ccccc1OCCCCn1cnc2ccccc21` is ____. 106

---
Requested read-out: remaining activity at 0.0025 µM. Entry: `Cc1nc2ccccc2n1Cc1ccc(Cl)cc1` 89.9

Next molecule up: CC(C)(C)c1ccc(CCOc2ncnc3ccccc23)cc1 [Fenazaquin, reference compound] 63.3

Now the molecule C=C(C)[C@H]1Cc2c(ccc3c2O[C@@H]2COc4cc(OC)c(OC)cc4[C@@H]2C3=O)O1 [Rotenone, reference compound] 110

Then this molecule: COC(=O)Nc1nc2ccc(Sc3ccccc3)cc2[nH]1 [fenbendazole, reference compound] 106

###

Molecular target: C. elegans (N2) complex I (NADH:ubiquinone oxidoreductase) (Caenorhabditis elegans, UniProt P24887+Q93873+Q94360)
Assay: biochemical
Assay type: biochemical
Details: Dose 15 µM; read-out: C. elegans mitochondrial complex I activity
Protocol: Mitochondria were isolated from the following free-living nematode strains: C. elegans—N2, CB3474, ECA882, ECA917, ECA1075, ECA1080; C. briggsae—AF16; P. pacificus—PS312; and P. hermaphrodita—B178. With the exception of the P. hermaphrodita strain B178, adult worms of each strain were grown in bulk through liquid culture to obtain mitochondria in sufficient quantities. […]
Reported values of activity at 15 µM for individual entries

Check out these entries, answers already filled in.
Endpoint output: activity at 15 µM of Nc1nc2ccccc2n1CCOc1ccc(Br)cc1 [Compound 5842535] . Value? 17.8%

// next record Clc1ccc(OCCn2cnc3ccccc32)c(Cl)c1 [Compound 7221649] 22.2%

Turning now to a further compound:
Consider the compound CCCOc1ccc(Cn2cnc3ccccc32)cc1 [Compound 7355741] and give its measured activity at 15 µM. 3.6%

###

Target: C. elegans (N2) complex I (NADH:ubiquinone oxidoreductase) (Caenorhabditis elegans, UniProt P24887+Q93873+Q94360)
Test: biochemical
Format: biochemical
Conditions: 75 µM; wild-type C. elegans mitochondria; mean of replicates; read-out: percent (%) in vitro complex I activity relative to solvent control
Measured remaining activity at 75 µM values are reported for all entries that follow.
Mention the unit after the number when you answer.

Consider the reported remaining activity at 75 µM for these molecules:
remaining activity at 75 µM lookup needed for COc1ccc(Cc2nccc3cc(OC)c(OC)cc23)cc1OC [Papaverine, reference compound] , thanks. 7.49%

Same lookup for COC(=O)Nc1nc2ccc(Sc3ccccc3)cc2[nH]1 [fenbendazole, reference compound] , please. 99.7%

// query: COC(=O)Nc1nc2ccc(C(=O)c3ccccc3)cc2[nH]1 [mebendazole, reference compound] 91.3%

What do we get for `COc1cc2c(cc1OC)C(/C=C/c1ccc(N(C)C)cc1)=NCC2` ? 9.53%

More entries:
Record request: remaining activity at 75 µM value, item `COc1cc2c(cc1OC)C(c1ccc(-c3ccc(Cl)c(Cl)c3)o1)=NCC2` 40.7%

Try this molecule too: COc1cc2c(cc1OC)C(C(C)c1ccc(CC(C)C)cc1)=NCC2 (stereo not drawn) 12.3%
